The origin of these recorded values is paper PMC5349910.

- System: Mia-PaCa2 cells
- protocol: Anti-proliferative activity, Mia-PaCa2
- Format: cell-based, human
- measurementParameters: Human Pancreatic Cancer; supplement values ± SEM
readoutName: EC50 (nM)
Your answer should be a plain number; it is taken to be in nM.

Request the reported EC50 associated with CN(C)CCCOc1ccc2c(NCCc3cnc(NC(=O)Nc4cccc(Cl)c4)s3)ncnc2c1
94

---

- System: U937 cells
- protocol: Anti-proliferative activity, U937
- Format: cell-based
- measurementParameters: Homo sapiens, U-937; AML-FLT3-negative; supplement values ± SEM; read-out: U937 EC50
readoutName: EC50

Request the reported EC50 associated with Cc1ccc(F)c(NC(=O)Nc2ccc(-c3cccc4[nH]nc(N)c34)cc2)c1
> 18 µM
